Biological target: UniProtKB Q9BWU1
Sequence (Q9BWU1 whole entry): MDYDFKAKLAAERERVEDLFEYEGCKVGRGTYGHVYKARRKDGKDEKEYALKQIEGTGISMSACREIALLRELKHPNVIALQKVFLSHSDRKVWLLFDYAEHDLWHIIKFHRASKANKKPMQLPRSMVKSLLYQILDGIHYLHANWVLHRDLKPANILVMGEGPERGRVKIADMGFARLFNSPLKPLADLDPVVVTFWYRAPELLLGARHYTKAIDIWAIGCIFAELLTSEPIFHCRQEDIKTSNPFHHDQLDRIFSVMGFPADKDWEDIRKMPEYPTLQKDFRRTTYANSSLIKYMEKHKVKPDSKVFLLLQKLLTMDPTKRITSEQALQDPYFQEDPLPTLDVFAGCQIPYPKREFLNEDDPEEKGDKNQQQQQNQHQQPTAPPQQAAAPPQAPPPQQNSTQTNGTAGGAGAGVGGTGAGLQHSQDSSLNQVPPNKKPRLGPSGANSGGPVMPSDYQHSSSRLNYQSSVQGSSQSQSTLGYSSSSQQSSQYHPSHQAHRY
Sequence (P24863 whole entry partner): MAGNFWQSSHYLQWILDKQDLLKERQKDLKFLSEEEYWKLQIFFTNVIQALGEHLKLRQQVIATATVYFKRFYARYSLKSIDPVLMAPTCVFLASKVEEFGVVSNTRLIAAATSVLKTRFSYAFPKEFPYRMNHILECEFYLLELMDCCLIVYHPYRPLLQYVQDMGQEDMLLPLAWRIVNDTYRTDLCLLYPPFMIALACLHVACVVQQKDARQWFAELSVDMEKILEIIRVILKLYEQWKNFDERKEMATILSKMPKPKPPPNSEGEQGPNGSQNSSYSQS
Test: CDK19 kinase activity measurement (QSS Assist CDC2L6/CycC_ELISA kit)
measurement-type: IC50 (nM)
Give the number; nM is assumed, so skip it.

For UniProtKB Q9BWU1, provide IC50 of COc1ccc(N2CCC(n3c(-c4nccnc4N)nc4c(C)nccc43)CC2)cc1 [Compound 2] please.
1.9

###

Molecular target: CDK8 (Homo sapiens, UniProt P49336)
Sequence (P49336 whole entry): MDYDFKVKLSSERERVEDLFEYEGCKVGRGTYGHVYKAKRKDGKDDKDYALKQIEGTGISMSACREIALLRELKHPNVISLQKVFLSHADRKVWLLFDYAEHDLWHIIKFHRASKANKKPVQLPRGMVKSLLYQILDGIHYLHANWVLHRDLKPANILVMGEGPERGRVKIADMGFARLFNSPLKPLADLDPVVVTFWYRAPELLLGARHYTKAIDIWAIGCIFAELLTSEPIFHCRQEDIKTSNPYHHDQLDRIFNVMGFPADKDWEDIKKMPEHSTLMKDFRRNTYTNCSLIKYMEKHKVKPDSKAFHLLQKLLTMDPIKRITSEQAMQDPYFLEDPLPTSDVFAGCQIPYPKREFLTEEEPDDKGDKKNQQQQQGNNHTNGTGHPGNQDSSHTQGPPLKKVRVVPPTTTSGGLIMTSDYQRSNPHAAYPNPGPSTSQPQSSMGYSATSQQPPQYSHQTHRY
Sequence (P24863 whole entry partner): as the sequence (P24863 whole entry partner) above
Experiment: CDK8 kinase activity measurement (QSS Assist CDK8/CycC_ELISA kit)
measurement-type: IC50 (nM)
Give the number; nM is assumed, so skip it.

For CDK8 (Homo sapiens, UniProt P49336), provide IC50 of COc1ccc(N2CCC(n3c(-c4nccnc4N)nc4c(C)nccc43)CC2)cc1 please.
0.7
